B1: LINE1-mini (parent)
chain: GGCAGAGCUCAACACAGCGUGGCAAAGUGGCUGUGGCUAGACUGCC

Variants of: B1
methodNotes: self-cleavage, relative activity (ratio to wild type); higher = more cleavage; in vitro, sequencing; the parent is a self-cleaving ribozyme
Assign 1 to entries whose self-cleavage meets or exceeds 0.1; assign -1 to the rest.

mutationCode: A6G G36A
assignedCategory: 1

mutationCode: C23U A24C
assignedCategory: 1

mutationCode: A16G U20C
assignedCategory: 1

mutationCode: U38C U43C
assignedCategory: 1

mutationCode: C10A G36A
assignedCategory: -1

mutationCode: A4C G7U
assignedCategory: 1

mutationCode: G21C G22U
assignedCategory: 1

mutationCode: G5U G19A
assignedCategory: 1

mutationCode: C18A A25G
assignedCategory: 1

mutationCode: G19A C42U
assignedCategory: 1

mutationCode: G5C C15G
assignedCategory: -1

mutationCode: G7C U34G
assignedCategory: -1

mutationCode: C3U A16C
assignedCategory: -1

mutationCode: G19C C23G
assignedCategory: 1

mutationCode: A4G C18A
assignedCategory: 1
